Numbers sourced from ChEMBL document CHEMBL3991601.

Biological target: LIM domain kinase 1 (Homo sapiens, UniProt P53667); further: in the data inactive means no Kd found up to 30 µM
Sequence (P53667 whole entry, the tested form may be a part): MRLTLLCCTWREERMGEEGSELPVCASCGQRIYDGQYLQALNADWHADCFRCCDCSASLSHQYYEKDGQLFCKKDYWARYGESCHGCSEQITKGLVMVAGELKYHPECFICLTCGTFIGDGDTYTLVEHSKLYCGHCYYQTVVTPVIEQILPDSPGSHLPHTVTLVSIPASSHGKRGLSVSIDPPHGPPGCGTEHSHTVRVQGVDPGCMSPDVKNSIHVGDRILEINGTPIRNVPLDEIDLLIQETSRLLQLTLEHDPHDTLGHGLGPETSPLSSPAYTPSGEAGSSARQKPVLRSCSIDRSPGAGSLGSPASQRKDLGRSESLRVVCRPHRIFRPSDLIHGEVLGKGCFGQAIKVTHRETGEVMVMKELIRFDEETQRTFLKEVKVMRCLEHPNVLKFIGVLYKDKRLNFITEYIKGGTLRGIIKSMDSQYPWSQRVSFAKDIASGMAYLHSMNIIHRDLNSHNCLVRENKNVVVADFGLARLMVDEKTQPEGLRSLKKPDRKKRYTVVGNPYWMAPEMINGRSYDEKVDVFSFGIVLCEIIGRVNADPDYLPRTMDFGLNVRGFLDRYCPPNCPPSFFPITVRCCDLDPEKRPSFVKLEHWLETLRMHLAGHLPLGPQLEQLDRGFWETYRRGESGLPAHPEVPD
Activity calls are given as the source filed them.
Log the outcome using a class from YES = active, NO = inactive

The examples below pair each entry with its known result.
| compound | measured_target | category |
| --- | --- | --- |
| CCCCCCCCCCCCCCCCCCOP(=O)([O-])OC1CC[N+](C)(C)CC1 [PERIFOSINE] | LIM domain kinase 1 (Homo sapiens, UniProt P53667) | NO |
| Cn1cc(-c2cnn3c(N)c(Br)c([C@@H]4CCCNC4)nc23)cn1 [SCH-900776] | LIM domain kinase 1 (Homo sapiens, UniProt P53667) | NO |
| CN1CCN(CCOc2cc(OC3CCOCC3)c3c(Nc4c(Cl)ccc5c4OCO5)ncnc3c2)CC1 [SARACATINIB] | LIM domain kinase 1 (Homo sapiens, UniProt P53667) | NO |
| CNC(=O)c1cc(Oc2ccc(NC(=O)Nc3cc(C(C)(C)C)nn3-c3ccc4ncccc4c3)c(F)c2)ccn1 [REBASTINIB] | LIM domain kinase 1 (Homo sapiens, UniProt P53667) | YES |

stdin: Would you mind telling me which call this test gave O=C1NC(=O)[C@@H](c2cn3c4c(cccc24)CCC3)[C@@H]1c1c[nH]c2ccccc12 [TIVANTINIB] ?
stdout: NO

----------
Molecular target: Bone morphogenetic protein receptor type-1B (Homo sapiens); further: in the data inactive means no Kd found up to 30 µM
Sequence (O00238 whole entry): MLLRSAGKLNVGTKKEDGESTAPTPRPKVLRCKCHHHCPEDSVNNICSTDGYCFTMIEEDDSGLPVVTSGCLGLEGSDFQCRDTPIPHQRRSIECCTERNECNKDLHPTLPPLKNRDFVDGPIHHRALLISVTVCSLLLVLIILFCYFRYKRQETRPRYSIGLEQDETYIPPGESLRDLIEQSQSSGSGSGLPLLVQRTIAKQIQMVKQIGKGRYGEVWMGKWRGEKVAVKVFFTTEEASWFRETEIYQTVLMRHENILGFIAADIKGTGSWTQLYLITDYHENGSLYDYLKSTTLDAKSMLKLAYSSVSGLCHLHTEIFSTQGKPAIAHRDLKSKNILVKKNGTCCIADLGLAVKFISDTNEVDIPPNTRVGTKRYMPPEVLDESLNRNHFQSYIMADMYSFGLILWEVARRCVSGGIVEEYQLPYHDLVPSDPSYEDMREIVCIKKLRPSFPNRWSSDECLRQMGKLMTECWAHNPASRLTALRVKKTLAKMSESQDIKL
Active and inactive are the calls of the source.
Log the outcome using a class from active, inactive

The examples below pair each entry with its known result.
| compound | category |
| --- | --- |
| O=C(Nc1nc2cccc(-c3ccc(CN4CCS(=O)(=O)CC4)cc3)n2n1)C1CC1 | inactive |
| Cc1cc(Nc2ncc(Cl)c(Nc3ccccc3S(=O)(=O)C(C)C)n2)c(OC(C)C)cc1C1CCNCC1 | inactive |
| Cn1ncc(Cl)c1-c1cc(C(=O)N[C@H](CN)Cc2ccc(F)c(F)c2)oc1Cl | inactive |
| COc1cc2c(Nc3ccc(Cl)c(Cl)c3F)ncnc2cc1OC[C@@H]1C[C@@H]2CN(C)C[C@@H]2C1 | inactive |
| COCC(=O)NC/C=C/c1ccc2ncnc(Nc3ccc(Oc4ccc(C)nc4)c(C)c3)c2c1 | inactive |

stdin: Would you mind telling me which call this test gave Cn1cc(-c2cnn3c(N)c(Br)c([C@@H]4CCCNC4)nc23)cn1 ?
stdout: inactive

stdin: Would you mind telling me which call this test gave N#CC1(c2ccc(NC(=O)c3cccnc3NCc3ccncc3)cc2)CCCC1 ?
stdout: inactive

stdin: Would you mind telling me which call this test gave CO[C@H]1C[C@@H]2CC[C@@H](C)[C@@](O)(O2)C(=O)C(=O)N2CCCC[C@H]2C(=O)O[C@H]([C@H](C)C[C@@H]2CC[C@@H](OC(=O)C(C)(CO)CO)[C@H](OC)C2)CC(=O)[C@H](C)/C=C(\C)[C@@H](O)[C@@H](OC)C(=O)[C@H](C)C[C@H](C)/C=C/C=C/C=C/1C ?
stdout: inactive

stdin: Would you mind telling me which call this test gave CN(C[C@@H]1COCCO1)S(=O)(=O)Nc1ccc2ccc3ncc(-c4cnn(C)c4)cc3c(=O)c2c1 ?
stdout: inactive

stdin: Would you mind telling me which call this test gave Nc1ncnc2c1c(-c1cccc(OCc3ccccc3)c1)cn2[C@H]1C[C@@H](CN2CCC2)C1 ?
stdout: active

stdin: Would you mind telling me which call this test gave Cc1csc(-c2nnc(Nc3ccc(Oc4ncccc4-c4ccnc(N)n4)cc3)c3ccccc23)c1 ?
stdout: inactive
